protocolSummary: Terminal plasma concentration in ovalbumin-immunized C57Bl6 mouse at 30 mg/kg, po administered 2 h prior to OVA immunization and measured after 5 hrs
Assay type: ADME, organism-based
conditionNotes: read-out: Cp(T)

| sampleSmiles | concentration at 2 h (nM) |
| --- | --- |
| C=CC(=O)N1CCC[C@@H](n2nc(-c3ccc(Oc4ccccc4)cc3)c3c(N)ncnc32)C1 | 187 |

====

subjectOfTest: Tyrosine-protein kinase BTK (Homo sapiens, UniProt Q06187)
Sequence (Q06187 whole entry): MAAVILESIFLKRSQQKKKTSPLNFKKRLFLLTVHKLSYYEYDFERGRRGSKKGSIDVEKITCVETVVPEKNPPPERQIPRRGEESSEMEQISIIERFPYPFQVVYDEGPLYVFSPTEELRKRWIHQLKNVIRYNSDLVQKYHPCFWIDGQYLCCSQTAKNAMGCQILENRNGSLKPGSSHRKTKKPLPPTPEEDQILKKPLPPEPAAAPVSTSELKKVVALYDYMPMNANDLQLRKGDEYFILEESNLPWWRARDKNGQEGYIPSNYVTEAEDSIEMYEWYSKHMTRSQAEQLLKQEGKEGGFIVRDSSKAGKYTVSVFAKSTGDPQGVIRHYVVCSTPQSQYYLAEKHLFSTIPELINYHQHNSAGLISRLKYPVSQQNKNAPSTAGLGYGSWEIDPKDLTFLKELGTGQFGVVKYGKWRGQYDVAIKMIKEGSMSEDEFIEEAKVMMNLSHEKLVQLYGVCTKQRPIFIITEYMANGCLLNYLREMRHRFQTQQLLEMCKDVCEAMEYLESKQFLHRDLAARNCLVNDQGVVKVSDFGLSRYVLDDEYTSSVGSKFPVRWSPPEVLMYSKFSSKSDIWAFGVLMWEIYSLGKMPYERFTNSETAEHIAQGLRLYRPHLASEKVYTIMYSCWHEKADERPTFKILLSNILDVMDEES
protocolSummary: Inhibition of BTK in human whole blood assessed as reduction in polyclonal anti-IgM antibody/human IL4-stimulated CD69 cell surface expression on B cells incubated for 16 hrs by FACS analysis
Format: tissue-based
This listing pairs molecules with measured IC50.

| molecule | measurementUnits | IC50 |
| --- | --- | --- |
| C=CC(=O)N1CC(O)(c2c[nH]c3ncnc(-c4cc(F)cc(NC(=O)c5ccc(C6CC6)cc5)c4C)c23)C1 | µM | 0.303 |
| Cc1c(NC(=O)c2ccc(C3CC3)cc2)cc(F)cc1-c1ncnc2[nH]cc(C3=CCN(C(=O)/C=C/CN4CCCC4)CC3)c12 | µM | 0.026 |
| C=CC(=O)N(C)Cc1c[nH]c2ncnc(-c3cccc(NC(=O)c4ccc(C(C)(C)C)cc4)c3C)c12 | µM | 0.934 |
| C=CC(=O)N1CCCC(c2c[nH]c3ncnc(-c4cc(F)cc(NC(=O)c5ccc(C6CC6)cc5)c4C)c23)C1 (stereo not given) | µM | 8 |
| C/C=C/C(=O)N1CC=C(c2c[nH]c3ncnc(-c4cc(F)cc(NC(=O)c5ccc(C6CC6)cc5)c4C)c23)CC1 | µM | 0.066 |
| C=CC(=O)N1CCC(c2c[nH]c3ncnc(-c4cc(F)cc(NC(=O)c5ccc(C6CC6)cc5)c4C)c23)C1 (stereo not given) | µM | 0.225 |
| C=CC(=O)N(C)C(=O)Cc1c[nH]c2ncnc(-c3cc(F)cc(NC(=O)c4ccc(C5CC5)cc4)c3C)c12 | µM | 0.016 |
| C=CC(=O)N(C)Cc1c[nH]c2ncnc(-c3cc(F)cc(NC(=O)c4ccc(C5CC5)cc4)c3C)c12 | µM | 1.26 |
| C=CC(=O)N(C)Cc1c[nH]c2ncnc(-c3cccc(NC(=O)c4ccc(C5CC5)cc4)c3C)c12 | µM | 7.47 |
| C=CC(=O)N1CCC(c2c[nH]c3ncnc(-c4cc(F)cc(NC(=O)c5ccc(C6CC6)cc5)c4C)c23)CC1 | µM | 0.019 |

# credit: ChEMBL document CHEMBL4665670
